Molecular target: Neuronal acetylcholine receptor alpha7 (Rattus norvegicus)
Assay: Inhibition constant against [3H]methyllycaconitine binding to alpha7 nicotinic acetylcholine receptor of rat brain membranes
pKi: −log10 of the molar value.
Give pKi for every item shown.

Given item COc1ccc(C[C@@H]2C[C@H](Cc3ccc(OC)cc3)C3CCC2N3C)cc1 , the value recorded as its pKi is < 4.00

Given item CN1C2CCC1[C@@H](Cc1ccccc1)C[C@H]2Cc1ccccc1 , the value recorded as its pKi is < 4.00

Given item CN1C2CCC1[C@@H](Cc1ccc(F)cc1)C[C@H]2Cc1ccc(F)cc1 , the value recorded as its pKi is < 4.00

Given item COc1ccc(CC2=C[C@H](Cc3ccc(OC)cc3)C3CCC2N3C)cc1 (stereo not given in full) , the value recorded as its pKi is < 4.00

Given item CN1C2CCC1[C@@H](Cc1ccccc1)C(=O)[C@H]2Cc1ccccc1 , the value recorded as its pKi is < 4.00
